Some binders, each annotated with its measured kon.
Molecular target: T1, cSNK:BSA conjugate (bovine, head-to-tail cyclized; conjugated to BSA carrier)
T1 construct: also called BSA-cSNK
T1 sequence (P02769 25-607 limits assumed): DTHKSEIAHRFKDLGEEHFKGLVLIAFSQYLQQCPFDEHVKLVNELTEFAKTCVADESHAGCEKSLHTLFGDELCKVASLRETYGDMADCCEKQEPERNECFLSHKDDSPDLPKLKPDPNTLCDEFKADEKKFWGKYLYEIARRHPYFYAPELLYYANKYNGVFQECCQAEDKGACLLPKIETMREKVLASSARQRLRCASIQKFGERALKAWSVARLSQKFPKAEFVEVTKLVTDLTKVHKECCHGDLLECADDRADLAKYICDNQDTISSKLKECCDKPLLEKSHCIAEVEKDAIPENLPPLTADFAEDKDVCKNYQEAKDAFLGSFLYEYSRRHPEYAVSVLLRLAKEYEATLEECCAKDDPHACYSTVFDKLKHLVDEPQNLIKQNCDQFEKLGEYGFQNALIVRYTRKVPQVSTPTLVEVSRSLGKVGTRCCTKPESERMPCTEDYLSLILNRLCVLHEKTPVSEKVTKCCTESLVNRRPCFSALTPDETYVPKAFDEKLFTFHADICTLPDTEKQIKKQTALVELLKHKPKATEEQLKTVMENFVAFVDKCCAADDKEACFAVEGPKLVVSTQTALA
Test: BLI 2:1 fit, site 2 (kon2); 50 nM row
Method: Biolayer interferometry (Octet […], ForteBio) was used to qualitatively/quantitatively assess the interactions between humanized versions of 5E3 and cSNK:BSA conjugate. […] MAbs were loaded onto sensors and then washed in PBST. Each sensor was associated with one of several cSNK:BSA standards (100 nM to 0 nM) and then washed in PBST. […] For each mAb analyzed, a 2:1 model provided the “best fit”.
Give your result in M⁻¹ s⁻¹ as a bare value.

INSERT INTO measurements (binder, measured_property, experimental_result) VALUES
  ('rehu5E3-IgG4 (antibody, V domains shown, human IgG4/kappa; also called IgG4 rehu version) VH: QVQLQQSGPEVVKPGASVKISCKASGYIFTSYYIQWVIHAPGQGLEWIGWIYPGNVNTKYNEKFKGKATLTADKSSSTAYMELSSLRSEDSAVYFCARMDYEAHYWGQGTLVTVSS VL: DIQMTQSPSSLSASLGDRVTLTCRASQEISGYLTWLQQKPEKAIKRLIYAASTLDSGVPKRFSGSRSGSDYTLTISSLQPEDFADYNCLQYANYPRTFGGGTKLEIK', 'kon', '4.44e+06');

Now for a further binder.
Please give the measured kon for this binder: murine monoclonal antibody 5E3 (antibody, V domains shown, mouse antibody of the 5E3 hybridoma; also called murine 5E3; m5E3) VH: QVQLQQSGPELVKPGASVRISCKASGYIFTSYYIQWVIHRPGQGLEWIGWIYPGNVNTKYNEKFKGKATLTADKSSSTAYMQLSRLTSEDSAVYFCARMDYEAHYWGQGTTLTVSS VL: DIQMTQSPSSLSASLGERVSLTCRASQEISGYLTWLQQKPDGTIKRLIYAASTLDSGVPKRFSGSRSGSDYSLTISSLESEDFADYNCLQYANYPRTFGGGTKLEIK
1.42e+07
